The measurements presented in this section are drawn from patent US11214803B2.

- Tested on: Yap1 mRNA
- procedureSummary: Antisense inhibition of human Yap1 in A-431 cells by cEt gapmers, single dose (Example 3, RTS36584)
- Format: cell-based
- condition: Table 28; Yap1 mRNA as percent of untreated control; 3-10-3 cEt gapmers targeting SEQ ID NO.: 1, and 2
Strand notation (5' to 3'): a small letter for the sugar, then the base; units joined by * are phosphorothioate-linked, units joined directly phosphodiester-linked; [ ] holds rarer units or linkages, { } end groups; capitals alone tell only the bases. k = constrained ethyl (cEt); [5mC] = 5-methylcytosine; d = 2'-deoxy (DNA)
measuredQuantity: YAP1 (% UTC)
One number for each entry, in % UTC.

Example entries and their recorded answers appear below.
> print(dat)
                                  substance  measuredquantity  experimentalvalue
1  1075662 (antisense kA*kA*kG*dG*dG*dA*dT*dA*d[5mC]*dA*dA*dG*dT*kG*kT*kT) [compound 1075662]      YAP1 (% UTC)                 78
2  1075950 (antisense kT*kG*kA*d[5mC]*dA*dA*dT*dA*d[5mC]*d[5mC]*dT*dT*d[5mC]*k[5mC]*kT*kA) [compound 1075950]      YAP1 (% UTC)                 30
3  1075086 (antisense kA*kG*kT*dT*dA*dT*dA*dG*dA*d[5mC]*dT*dT*dT*kG*kT*kA) [compound 1075086]      YAP1 (% UTC)                 25
4  1076558 (kG*k[5mC]*k[5mC]*dA*dA*dA*dT*dA*dT*dT*dT*dA*dA*k[5mC]*kT*k[5mC]; antisense) [compound 1076558]      YAP1 (% UTC)                 30
5  1075342 (antisense kA*k[5mC]*kT*dA*dA*dA*dA*dG*dG*dG*dA*dG*dT*kA*kG*kG) [compound 1075342]      YAP1 (% UTC)                 87

Could I get YAP1 (% UTC) for every one of these entries?
1. 1074478 (k[5mC]*k[5mC]*kT*dA*dG*dG*dT*dT*d[5mC]*d[5mC]*dG*dA*d[5mC]*kA*kA*kA; antisense) [compound 1074478]
2. 1074638 (antisense kA*kG*kA*dT*dT*dT*dT*dG*dT*dA*dA*dT*dT*kG*kG*kG) [compound 1074638]
3. 1076334 (antisense kA*k[5mC]*k[5mC]*dT*dA*dT*dA*dA*dG*dG*dA*dA*dT*kG*kG*k[5mC]) [compound 1076334]

1. 69
2. 2
3. 108

* * *

- procedureSummary: Cynomolgus monkey tolerability, urine analysis (Example 34)
- condition: cynomolgus monkeys, 35 mg/kg subcutaneously, day 44
measuredQuantity: UALB (mg/dL)
One number for each entry, in mg/dL.

Example entries and their recorded answers appear below.
substance	UALB, mg/dL
1198623 (CTAAGTAAGGTTTCCC; modified gapmer, further chemistry not given here) [compound 1198623]	0.2
1076453 (GTAATATTGCAATCTG; 3-10-3 cEt gapmer, further chemistry not given here) [compound 1076453]	0.1
1198439 (AGTGTATGTCAGAAGA; sugar, 5-methylcytosine, phosphorothioate modifications, further chemistry not given here) [compound 1198439]	0.1

Now let's try a different one.
Consider the substance 1198872 (TGTATGTCAGAAGAGT; chemically modified gapmer, further chemistry not given here) [compound 1198872] and give its measured UALB. 0.3
